- experiment: Solubility of the compound in distilled water after 15 mins by HPLC method
- Type: physicochemical
observable: solubility at 0.25 h (µg/mL)
The figure you give is taken to be in µg/mL; do not add the unit.

molecule: CC(C)(C)c1[nH]cnc1/C=c1\[nH]c(=O)/c(=C/c2ccccc2)nc1OCOC(=O)CCCc1cn(CC(=O)[O-])nn1.[Na+]
result.unit: µg/mL
solubility at 0.25 h: 590
--
molecule: CC(C)(C)c1[nH]cnc1/C=c1\[nH]c(=O)/c(=C/c2ccccc2)nc1OCOC(=O)CCCc1cn([C@@H]2O[C@H](CO)[C@H](O)[C@H](O)[C@H]2O)nn1
result.unit: µg/mL
solubility at 0.25 h: 7.5
--
molecule: CC(C)(C)c1[nH]cnc1/C=c1\[nH]c(=O)/c(=C/c2ccccc2)nc1OCOC(=O)CCCc1cn(C[C@H](O)CC(=O)[O-])nn1.[Na+]
result.unit: µg/mL
solubility at 0.25 h: 850

What solubility at 0.25 h value was documented for this molecule, O=C(O)CC(C(=O)O)n1cc(CCCC(=O)OCOc2n/c(=C\c3cccc(C(=O)c4ccccc4)c3)c(=O)[nH]/c2=C\c2ccccn2)nn1 (single isomer, unassigned) ?
80000
